System: Klebsiella pneumonia ATCC 700603
Settings: ATCC 700603
Ends that are not written are not given here.

| SUBSTANCE | SIGN QUALIFIER | MIC K. pne. [µM] |
| --- | --- | --- |
| H-PGVVWMNWKGSWYSMRKMSMKIRPFFPQQ [(P)FIBβ-GVV28] | = | 25 |
| H-PNWKGSWYSMRKMSMKIRPFFPQQ [(P)FIBβ-NWK23] | = | 25 |
| SFRGADYSLRAVRMKIRPLVTQ [FIBα-SFR22] | > | 50 |
| GVVWMNWKGSWYSMRKMSMKIRPFFPQQ [FIBβ-GVV28] | = | 25 |
| H-PGVVWVSFRGADYSLRAVRMKIRPLVTQ [(P)FIBα-GVV27] | = | 50 |
| H-PTWKTRWYSMKKTTMKIIPFNRLTIG [(P)FIBγ-TWK25] | = | 6.25 |
| NWKGSWYSMRKMSMKIRPFFPQQ [FIBβ-NWK23] | = | 25 |
| H-PGIIWATWKTRWYSMKKTTMKIIPFNRLTIG [(P)FIBγ-GII30] | = | 25 |
| TWKTRWYSMKKTTMKIIPFNRLTIG [FIBγ-TWK25] | = | 6.25 |
| GVVWVSFRGADYSLRAVRMKIRPLVTQ [FIBα-GVV27] | = | 25 |
| H-PSFRGADYSLRAVRMKIRPLVTQ [(P)FIBα-SFR22] | > | 50 |
| GIIWATWKTRWYSMKKTTMKIIPFNRLTIG [FIBγ-GII30] | = | 12.5 |

###

Tested on: Pseudomonas aeruginosa PA14
Conditions: Table 1; broth microdilution, Nutrient Broth 0.5×, overnight 37 °C; minimum of three independent experiments
Ends that are not written are not given here.

| SUBSTANCE | STUDY TARGET | MIC PA14 (µM) |
| --- | --- | --- |
| GVVWVSFRGADYSLRAVRMKIRPLVTQ [FIBα-GVV27] | Pseudomonas aeruginosa PA14 | 6.25 |
| GIIWATWKTRWYSMKKTTMKIIPFNRLTIG [FIBγ-GII30] | Pseudomonas aeruginosa PA14 | 6.25 |
| H-PGVVWVSFRGADYSLRAVRMKIRPLVTQ [(P)FIBα-GVV27] | Pseudomonas aeruginosa PA14 | 6.25 |
| H-PGIIWATWKTRWYSMKKTTMKIIPFNRLTIG [(P)FIBγ-GII30] | Pseudomonas aeruginosa PA14 | 6.25 |
| H-PTWKTRWYSMKKTTMKIIPFNRLTIG [(P)FIBγ-TWK25] | Pseudomonas aeruginosa PA14 | 3.12 |
| TWKTRWYSMKKTTMKIIPFNRLTIG [FIBγ-TWK25] | Pseudomonas aeruginosa PA14 | 3.12 |

###

The reader will find reported MIC E. coli values listed item by item below.
Tested on: Escherichia coli ATCC 25922
Conditions: Table 1; broth microdilution, Nutrient Broth 0.5×, ~5 × 10^5 CFU/mL, overnight 37 °C; minimum of three independent experiments
Ends that are not written are not given here.

| SUBSTANCE | MIC E. coli, µM |
| --- | --- |
| GIIWATWKTRWYSMKKTTMKIIPFNRLTIG [FIBγ-GII30] | 6.25 |
| H-PNWKGSWYSMRKMSMKIRPFFPQQ [(P)FIBβ-NWK23] | 6.25 |
| H-PTWKTRWYSMKKTTMKIIPFNRLTIG [(P)FIBγ-TWK25] | 3.12 |
| TWKTRWYSMKKTTMKIIPFNRLTIG [FIBγ-TWK25] | 3.12 |

Data origin: paper PMC12469503
